tested on: Botrytis cinerea; test: In vivo preventive test on Botrytis cinerea (grey mould) on gherkin, Examples B, Q1 and R2; settings: Botrytis cinerea, 500 ppm of active ingredient, preventive spray, evaluated 4 to 5 days after inoculation, read-out: efficacy
quantity_name: pest or weed control at 500 ppm

Return pest or weed control at 500 ppm measured with Botrytis cinerea given this compound: OC(Cc1cc(F)ncc1Cl)(Cn1cncc1Cl)C1(Cl)CC1 (centres unmarked) [Example I-18]
90 to 100%

Query pest or weed control at 500 ppm on Botrytis cinerea for N#Cc1cncn1CC(O)(Cc1ccc(F)cc1F)C1(Cl)CC1 (centres unmarked) [Example I-125]
80 to 89%

What reported pest or weed control at 500 ppm corresponds to Cc1ccc(CC(O)(Cn2cncc2Cl)C2(Cl)CC2)c(F)c1 (centres unmarked) [Example I-108] on Botrytis cinerea?
90 to 100%

Give recorded pest or weed control at 500 ppm with Botrytis cinerea for the following compound: OC(Cc1cccnc1Cl)(Cn1cncc1Br)C1(Cl)CC1 (centres unmarked) [Example I-25]
90 to 100%

Find pest or weed control at 500 ppm (Botrytis cinerea) for the entry Cc1cccc(CC(O)(Cn2cncc2C#N)C2(Cl)CC2)c1 (centres unmarked) [Example I-59]
90 to 100%

----------
tested on: Botrytis cinerea; experiment: In vivo preventive test on Botrytis cinerea (grey mould) on gherkin, Examples B, Q1 and R2; details: Botrytis cinerea, Example R2, rate of application 100 ppm, read-out: Efficacy in %
quantity_name: pest or weed control at 100 ppm (%)
Use % as the unit, but write only the number.

Can you share its pest or weed control at 100 ppm? I mean this compound: OC(Cc1ccccc1Cl)(Cn1cnc(Br)c1)C1(Cl)CC1 (centres unmarked) [drawing 70, reference compound]
5

# lookup: pest or weed control at 100 ppm of OC(Cc1ccccc1F)(Cn1ccnc1Cl)C1(Cl)CC1 (centres unmarked) [drawing 77, reference compound]
0

Can you look up the measured pest or weed control at 100 ppm of OC(Cc1ccccc1Cl)(Cn1cncc1Br)C1(Cl)CC1 (centres unmarked) for me?
90

Which measured pest or weed control at 100 ppm value corresponds to C#Cc1cn(CC(O)(Cc2ccccc2F)C2(Cl)CC2)cn1 (centres unmarked) [drawing 74, reference compound] ?
0

May I ask what pest or weed control at 100 ppm has been recorded for OC(Cc1ccccc1F)(Cn1cncc1Cl)C1(Cl)CC1 (centres unmarked) ?
99

Any idea what pest or weed control at 100 ppm was measured for N#Cc1cncn1CC(O)(Cc1ccccc1Cl)C1(Cl)CC1 (centres unmarked) ?
80

Quick one: pest or weed control at 100 ppm for N#Cc1cncn1CC(O)(Cc1ccccc1F)C1(Cl)CC1 (centres unmarked) ?
94

Consider the compound OC(Cc1ccccc1F)(Cn1cnc(Cl)c1)C1(Cl)CC1 (centres unmarked) [drawing 76, reference compound] and give its measured pest or weed control at 100 ppm.
0

Name the recorded pest or weed control at 100 ppm for C#Cc1cncn1CC(O)(Cc1ccccc1F)C1(Cl)CC1 (centres unmarked) .
100

Sample N#Cc1cn(CC(O)(Cc2ccccc2F)C2(Cl)CC2)cn1 (centres unmarked) [drawing 85, reference compound] — what was its pest or weed control at 100 ppm?
0

pest or weed control at 100 ppm for N#Cc1cn(CC(O)(Cc2ccccc2Cl)C2(Cl)CC2)cn1 (centres unmarked) [drawing 72, reference compound] ?
0

----------
system: Sphaerotheca fuliginea; assay: In vivo preventive test on Sphaerotheca fuliginea (powdery mildew on cucurbits), Examples F and R6; settings: Podosphaera fuliginea, 360 h; Example R6, gherkin, preventive spray, 100 ppm, evaluated 15 days after inoculation; read-out: Efficacy in %
quantity_name: pest or weed control at 100 ppm (%)
Response body: numeric value in %, unit text excluded.

// pest or weed control at 100 ppm lookup, key: N#Cc1cncn1CC(O)(Cc1ccccc1F)C1(Cl)CC1 (centres unmarked)
100

Would you kindly share the measured pest or weed control at 100 ppm for Cc1cn(CC(O)(Cc2ccccc2Cl)C2(Cl)CC2)cn1 (centres unmarked) [drawing 144] ?
0

// lookup pest or weed control at 100 ppm for C#Cc1cncn1CC(O)(Cc1ccccc1F)C1(Cl)CC1 (centres unmarked)
100

What does the record list as pest or weed control at 100 ppm for OC(Cc1ccc(Cl)cc1F)(Cn1cncc1Cl)C1(Cl)CC1 (centres unmarked) ?
100

What value of pest or weed control at 100 ppm has been recorded for this entry: OC(Cc1ccccc1Cl)(Cn1cncc1Br)C1(Cl)CC1 (centres unmarked)
100

Bench note: what pest or weed control at 100 ppm did N#Cc1cn(CC(O)(Cc2ccccc2F)C2(Cl)CC2)cn1 (centres unmarked) [drawing 157] show?
95

I am curious: what pest or weed control at 100 ppm value has been reported for OC(Cc1ccc(Cl)cc1F)(Cn1cncc1Br)C1(Cl)CC1 (centres unmarked) ?
100

Give the measured pest or weed control at 100 ppm of N#Cc1cncn1CC(O)(Cc1ccc(Cl)cc1F)C1(Cl)CC1 (centres unmarked) .
100

// returns reported pest or weed control at 100 ppm for input Cc1cncn1CC(O)(Cc1ccccc1Cl)C1(Cl)CC1 (centres unmarked)
85

Quick one: pest or weed control at 100 ppm of OC(Cc1ccccc1F)(Cn1ccnc1Cl)C1(Cl)CC1 (centres unmarked) [drawing 149] ?
0

Need pest or weed control at 100 ppm of OC(Cc1ccccc1F)(Cn1cnc(Cl)c1)C1(Cl)CC1 (centres unmarked) [drawing 148] , thanks.
60

Reported pest or weed control at 100 ppm for OC(Cc1ccccc1Cl)(Cn1cnc(Br)c1)C1(Cl)CC1 (centres unmarked) [drawing 142] : what is it?
20

Which pest or weed control at 100 ppm value belongs to OC(Cc1ccccc1F)(Cn1cncc1Cl)C1(Cl)CC1 (centres unmarked) ?
100

Look at this compound and give its reported pest or weed control at 100 ppm. C#Cc1cn(CC(O)(Cc2ccccc2F)C2(Cl)CC2)cn1 (centres unmarked) [drawing 146]
0

----------
experiment: Measurement of LogP values by HPLC on reversed phase columns (EEC directive 79/831 Annex V.A8); type: physicochemical; conditions: method [a]: LC-UV, acidic range, 0.1% formic acid in water and acetonitrile as eluent; Table 1
quantity_name: chromatographic logP
Just the number, please.

Consider the compound shown here: OC(Cc1cc(F)ncc1Cl)(Cn1cncc1Cl)C1(Cl)CC1 (stereo not drawn) [Example I-18] What is its recorded chromatographic logP?
2.01

Name the reported chromatographic logP value associated with the compound N#Cc1cncn1CC(O)(Cc1ccccc1F)C1(F)CC1 (stereo not drawn) [Example I-99]
2.01

Consider the compound CC(C)C(O)(Cc1ccc(F)c(F)c1F)Cn1cncc1C#N (stereo not drawn) [Example I-105] and give its measured chromatographic logP.
2.78

Fill blank: measured chromatographic logP of the compound N#Cc1cncn1CC(O)(Cc1ccncc1C(F)(F)F)C1(Cl)CC1 (stereo not drawn) [Example I-92] is ____.
2.18

Reported chromatographic logP, compound N#Cc1cncn1CC(O)(Cc1ccc(F)c(F)c1F)C1(Cl)CC1 (stereo not drawn) [Example I-103] : ____
2.92

Look up chromatographic logP: COc1ccccc1CC(O)(Cn1cncc1C#N)C1(Cl)CC1 (stereo not drawn) [Example I-55]
2.93

Reported chromatographic logP, compound N#Cc1cncn1CC(O)(Cc1cccc(F)c1F)C1CCC1 (stereo not drawn) [Example I-148] : ____
2.57

So what's the measured chromatographic logP for this one? N#Cc1cncn1CC(O)(Cc1ccc(F)cc1)C1(F)CC1 (stereo not drawn) [Example I-100]
2.35

Which chromatographic logP value belongs to COC(=O)c1cncn1CC(O)(Cc1ccccc1Cl)C1(Cl)CC1 (stereo not drawn) [Example I-01] ?
2.82

----------
tested on: Botrytis cinerea; assay: In vivo preventive test on Botrytis cinerea (grey mould) on gherkin, Examples B, Q1 and R2; conditions: Botrytis cinerea, Example R2, rate of application 500 ppm, read-out: Efficacy in %
quantity_name: pest or weed control at 500 ppm (%)
Response body: numeric value in %, unit text excluded.

Consider the compound shown here: C#Cc1cn(CC(O)(Cc2ccccc2F)C2(Cl)CC2)cn1 (centres unmarked) [drawing 74, reference compound] What is its recorded pest or weed control at 500 ppm?
0

I am curious: what pest or weed control at 500 ppm value has been reported for N#Cc1cncn1CC(O)(Cc1ccccc1Cl)C1(Cl)CC1 (centres unmarked) ?
97

What does the record list as pest or weed control at 500 ppm for OC(Cc1ccccc1Cl)(Cn1cnc(Br)c1)C1(Cl)CC1 (centres unmarked) [drawing 70, reference compound] ?
0

Recorded pest or weed control at 500 ppm for C#Cc1cncn1CC(O)(Cc1ccccc1F)C1(Cl)CC1 (centres unmarked) , please?
100

Please give the measured pest or weed control at 500 ppm for this compound: OC(Cc1ccccc1F)(Cn1cncc1Cl)C1(Cl)CC1 (centres unmarked)
100

Quick check: pest or weed control at 500 ppm of OC(Cc1ccccc1F)(Cn1cnc(Cl)c1)C1(Cl)CC1 (centres unmarked) [drawing 76, reference compound] ?
0

Which value of pest or weed control at 500 ppm has been reported for OC(Cc1ccccc1Cl)(Cn1cncc1Br)C1(Cl)CC1 (centres unmarked) in the records?
100

I'd like to know its pest or weed control at 500 ppm. The compound in question is OC(Cc1ccccc1F)(Cn1ccnc1Cl)C1(Cl)CC1 (centres unmarked) [drawing 77, reference compound]
0

Consider the compound N#Cc1cncn1CC(O)(Cc1ccccc1F)C1(Cl)CC1 (centres unmarked) and give its measured pest or weed control at 500 ppm.
100

# query: pest or weed control at 500 ppm of entry N#Cc1cn(CC(O)(Cc2ccccc2Cl)C2(Cl)CC2)cn1 (centres unmarked) [drawing 72, reference compound]
0

Given N#Cc1cn(CC(O)(Cc2ccccc2F)C2(Cl)CC2)cn1 (centres unmarked) [drawing 85, reference compound] , state its recorded pest or weed control at 500 ppm.
0

Cited source: patent US10231453B2
